Tested on: Acinetobacter baumannii ATCC 17978
Test: Antimicrobial susceptibility testing: 90% growth inhibitory concentration (IC90) determination
Format: cell-based
Conditions: Acinetobacter baumannii, ATCC17978, 16 h, 90% growth inhibitory concentration; Acinetobacter baumannii ATCC17978; Iso-Sensitest broth, OD 600 nm over 16h; read-out: ATCC17978 IC90
Where a name gives a salt, the structure may show the parent alone.
Threshold check on IC90: strictly below 300 nM is t; on or above 300 nM is f.

molecule: CCc1cc(Nc2nccn3c(-c4ccc(Oc5ccc(F)cn5)c(F)c4F)cnc23)ccc1C(=O)NCCNC(=O)[C@H](N)CCNC(=N)N
qualitative label: f

molecule: Cc1cc(Nc2nccn3c(-c4ccc(OC(F)F)cc4)cnc23)ccc1C(=O)NCCC1CCNCC1
qualitative label: f

molecule: CN(CCCn1c(=O)c(=O)[nH]n(C)c1=S)C(=O)c1ccc(Nc2nccn3c(-c4ccc(OCC#N)c(F)c4F)cnc23)cc1Cl
qualitative label: f

molecule: CCc1cc(Nc2nccn3c(-c4ccc(OC)cc4C(F)(F)F)cnc23)ccc1C(=O)NC
qualitative label: t

molecule: CCc1cc(Nc2nccn3c(-c4ccc(OCc5cc[nH]n5)c(F)c4F)cnc23)ccc1C(=O)N[C@@H](C)CN (racemic)
qualitative label: f

molecule: CCc1cc(Nc2nccn3c(-c4ccc(OC)c(F)c4F)cnc23)ccc1C(=O)NC[C@@H](C)NC(=O)[C@@H](N)CCCNC(=N)N [Example 122, formate]
qualitative label: f

molecule: Cc1cc(Nc2nccn3c(-c4ccc(OC(F)F)cc4)cnc23)ccc1C(=O)N(C)CCCSc1nnnn1CCN(C)C
qualitative label: f

molecule: CCc1cc(Nc2nccn3c(-c4ccc(OC)c(F)c4F)cnc23)ccc1C(=O)NCCCC[C@H](N)C(=O)O
qualitative label: f

molecule: COc1ccc(-c2cnc3c(Nc4ccc(C(=O)N(CCN5CCNCC5)CC(F)F)c(C)c4)nccn23)cc1F
qualitative label: f

molecule: Cc1cc(Nc2nccn3c(-c4ccc(OC(F)F)cc4)cnc23)ccc1C(=O)N(C)CC(=O)N1CCN(C)CC1
qualitative label: f

molecule: CCc1cc(Nc2nccn3c(-c4ccc(OC)c(F)c4F)cnc23)ccc1C(=O)NCC(C)CNC(=O)[C@@H](N)CNC(=N)N (mixture of isomers) [Example 408, diformate]
qualitative label: f

molecule: COc1ccc(-c2cnc3c(Nc4ccc(C(=O)N(C)CC5CCOC5)c(C)c4)nccn23)cc1F (centres unmarked)
qualitative label: f

molecule: CCc1cc(Nc2nccn3c(-c4ccc(OC)c(F)c4F)cnc23)ccc1C(=O)NCC1COC1
qualitative label: t

molecule: COc1ccc(-c2cnc3c(Nc4ccc(C(=O)NCCCNC(=O)CC[C@H](N)C(=O)O)c(C)c4)nccn23)c(F)c1F
qualitative label: f

molecule: COc1ccc(-c2cnc3c(Nc4ccc(C(=O)N(C)CCCN)cc4)nccn23)cc1 [Example 33, hydrochloride]
qualitative label: f

molecule: Cc1cc(Nc2nccn3c(-c4ccc(Cl)c(F)c4F)cnc23)ccc1C(=O)NCCC1CCNCC1
qualitative label: f

molecule: CNC(=O)c1ccc(Nc2nccn3c(-c4ccc(OC(F)F)cc4)cnc23)cc1Br
qualitative label: t

molecule: Cc1cc(Nc2nccn3c(-c4ccc(OCC#N)c(F)c4F)cnc23)ccc1C(=O)NCCCNC(=O)[C@@H]1C[C@](C)(O)CN1 [Example 134, formate]
qualitative label: t

molecule: CNC(=O)c1ccc(Nc2nccn3c(-c4ccc(OC(F)F)cc4)cnc23)cc1C
qualitative label: t

molecule: O=C(NCc1ccccn1)c1ccc(Nc2nccn3c(-c4ccc(OC(F)F)cc4)cnc23)cc1Cl
qualitative label: f

molecule: COc1ccc(-c2cnc3c(Nc4ccc(C(=O)NCCCN)c(CCF)c4)nccn23)c(F)c1F
qualitative label: f

molecule: CCc1cc(Nc2nccn3c(-c4ccc(OC(F)F)c(F)c4F)cnc23)ccc1C(=O)NCC1(O)CCNC1 (centres unmarked)
qualitative label: f

molecule: CCc1cc(Nc2nccn3c(-c4ccc(Oc5nccs5)c(F)c4F)cnc23)ccc1C(=O)NCCCN
qualitative label: f

molecule: CCc1cc(Nc2nccn3c(-c4ccc(OC)c(F)c4F)cnc23)ccc1C(=O)NCCNC(=O)[C@@H](N)[C@@H](C)O
qualitative label: t

molecule: Cn1cc(CNC(=O)c2ccc(Nc3nccn4c(-c5ccc(OCC#N)c(F)c5F)cnc34)cc2Cl)ccc1=O
qualitative label: t

molecule: CCc1cc(Nc2nccn3c(-c4ccc(OC)c(F)c4F)cnc23)ccc1C(=O)NCC(O)CNC(=O)CC(O)CN (centres unmarked) [Example 411, hydrochloride]
qualitative label: f

----------
Catalogue of IC90 readings, one per entry.
Test system: Acinetobacter baumannii ATCC 17978
Assay: Antimicrobial susceptibility testing: 90% growth inhibitory concentration (IC90) determination
Format: cell-based
Conditions: Acinetobacter baumannii, ATCC17978, 16 h, 90% growth inhibitory concentration; Acinetobacter baumannii ATCC17978; Iso-Sensitest broth, OD 600 nm over 16h; read-out: ATCC17978 IC90
Structures can show the parent of a compound that is named as a salt.
recorded endpoint: IC90 (nM)

compound: CCc1cc(Nc2nccn3c(-c4ccc(Cl)cc4Cl)cnc23)ccc1C(=O)NCCNC(=O)[C@H](N)CCCNC(=N)N [Example 351]
recorded endpoint: IC90
recorded number: 1300

compound: COc1ccc(-c2cnc3c(Nc4ccc(C(=O)N(C)CC(=O)N(C)C)c(C)c4)nccn23)cc1F [Example 7]
recorded endpoint: IC90
recorded number: 1900

compound: Cc1cc(Nc2nccn3c(-c4ccc(OC(F)F)cc4)cnc23)ccc1C(=O)N(C)CCC1CCN(CCC#N)CC1 [Example 309]
recorded endpoint: IC90
recorded number: 690

compound: COc1ccc(-c2cnc3c(Nc4ccc(C(=O)NCCCN)c(C)c4)nccn23)c(F)c1F [Example 64]
recorded endpoint: IC90
recorded number: 230

compound: CCc1cc(Nc2nccn3c(-c4ccc(Cl)c(F)c4F)cnc23)ccc1C(=O)NCCNC(=O)[C@@H](N)CCCNC(=N)N [Example 341]
recorded endpoint: IC90
recorded number: 650

compound: Cc1cc(Nc2nccn3c(-c4ccc(OC(F)F)cc4)cnc23)ccc1C(=O)N(C)CCCCN [Example 200]
recorded endpoint: IC90
recorded number: 440

compound: CCc1cc(Nc2nccn3c(-c4ccc(Oc5nccc(C)n5)c(F)c4F)cnc23)ccc1C(=O)N[C@@H](C)CNC(=O)[C@@H](N)CCNC(=N)N [Example 455]
recorded endpoint: IC90
recorded number: 720

compound: COc1ccc(-c2cnc3c(Nc4ccc(C(=O)NCCNC(=O)N5CCN[C@@H](C(=O)O)C5)c(C)c4)nccn23)c(F)c1F [Example 352]
recorded endpoint: IC90
recorded number: 1300

compound: CNC(=O)c1ccc(Nc2nccn3c(-c4ccc(OC(F)F)cc4)cnc23)cc1I [Example 91]
recorded endpoint: IC90
recorded number: 260

compound: CCc1cc(Nc2nccn3c(-c4ccc(OC)c(F)c4F)cnc23)ccc1C(=O)NCCCCCCn1ccnc1 [Example 535]
recorded endpoint: IC90
recorded number: 85

compound: CCc1cc(Nc2nccn3c(-c4ccc(OC(F)F)c(F)c4F)cnc23)ccc1C(=O)NCCCO [Example 293]
recorded endpoint: IC90
recorded number: 120

compound: CCc1cc(Nc2nccn3c(-c4ccc(Oc5nccc(C)n5)c(F)c4F)cnc23)ccc1C(=O)NCCNC(=O)[C@@H](N)CCNC(=N)N [Example 445]
recorded endpoint: IC90
recorded number: 380

compound: CCc1cc(Nc2nccn3c(-c4ccc(OC(F)F)c(F)c4F)cnc23)ccc1C(=O)NCCCN [Example 276, hydrochloride]
recorded endpoint: IC90
recorded number: 480

compound: Cc1cc(Nc2nccn3c(-c4ccc(OC(F)F)cc4)cnc23)ccc1C(=O)NCCCC[C@H](N)C(=O)O [Example 271]
recorded endpoint: IC90
recorded number: 9300

compound: CCN(CC)C(=O)c1ccc(Nc2nccn3c(-c4ccc(OC)cc4)cnc23)cc1 [Example 227]
recorded endpoint: IC90
recorded number: 610

compound: COc1ccc(-c2cnc3c(Nc4ccc(C(=O)NCCCS(=O)(=O)N5CCNCC5)c(C)c4)nccn23)c(F)c1F [Example 68]
recorded endpoint: IC90
recorded number: 170

compound: Cc1cc(Nc2nccn3c(-c4ccc(OC(F)F)cc4)cnc23)ccc1C(=O)N(C)CCN1CCCCC1 [Example 265]
recorded endpoint: IC90
recorded number: 5100

compound: COc1ccc(-c2cnc3c(Nc4ccc(C(=O)N(C)CCCC(=O)N5CCNCC5)c(C)c4)nccn23)cc1F [Example 207]
recorded endpoint: IC90
recorded number: 560

compound: COc1ccc(-c2cnc3c(Nc4ccc(C(=O)NCCNC(=O)N5CCN[C@H](C(=O)O)C5)c(C)c4)nccn23)c(F)c1F [Example 348]
recorded endpoint: IC90
recorded number: 1100

compound: Cc1cc(Nc2nccn3c(-c4ccc(Cl)c(F)c4F)cnc23)ccc1C(=O)NCCCCN [Example 202]
recorded endpoint: IC90
recorded number: 460

compound: CCc1cc(Nc2nccn3c(-c4ccc(OC)c(F)c4F)cnc23)ccc1C(=O)NCCNC(=O)[C@@H](N)CCCN [Example 397, formic acid]
recorded endpoint: IC90
recorded number: 410
